Reported pIC50 values, UniProt:P29474.
Sequence (P29474 whole entry): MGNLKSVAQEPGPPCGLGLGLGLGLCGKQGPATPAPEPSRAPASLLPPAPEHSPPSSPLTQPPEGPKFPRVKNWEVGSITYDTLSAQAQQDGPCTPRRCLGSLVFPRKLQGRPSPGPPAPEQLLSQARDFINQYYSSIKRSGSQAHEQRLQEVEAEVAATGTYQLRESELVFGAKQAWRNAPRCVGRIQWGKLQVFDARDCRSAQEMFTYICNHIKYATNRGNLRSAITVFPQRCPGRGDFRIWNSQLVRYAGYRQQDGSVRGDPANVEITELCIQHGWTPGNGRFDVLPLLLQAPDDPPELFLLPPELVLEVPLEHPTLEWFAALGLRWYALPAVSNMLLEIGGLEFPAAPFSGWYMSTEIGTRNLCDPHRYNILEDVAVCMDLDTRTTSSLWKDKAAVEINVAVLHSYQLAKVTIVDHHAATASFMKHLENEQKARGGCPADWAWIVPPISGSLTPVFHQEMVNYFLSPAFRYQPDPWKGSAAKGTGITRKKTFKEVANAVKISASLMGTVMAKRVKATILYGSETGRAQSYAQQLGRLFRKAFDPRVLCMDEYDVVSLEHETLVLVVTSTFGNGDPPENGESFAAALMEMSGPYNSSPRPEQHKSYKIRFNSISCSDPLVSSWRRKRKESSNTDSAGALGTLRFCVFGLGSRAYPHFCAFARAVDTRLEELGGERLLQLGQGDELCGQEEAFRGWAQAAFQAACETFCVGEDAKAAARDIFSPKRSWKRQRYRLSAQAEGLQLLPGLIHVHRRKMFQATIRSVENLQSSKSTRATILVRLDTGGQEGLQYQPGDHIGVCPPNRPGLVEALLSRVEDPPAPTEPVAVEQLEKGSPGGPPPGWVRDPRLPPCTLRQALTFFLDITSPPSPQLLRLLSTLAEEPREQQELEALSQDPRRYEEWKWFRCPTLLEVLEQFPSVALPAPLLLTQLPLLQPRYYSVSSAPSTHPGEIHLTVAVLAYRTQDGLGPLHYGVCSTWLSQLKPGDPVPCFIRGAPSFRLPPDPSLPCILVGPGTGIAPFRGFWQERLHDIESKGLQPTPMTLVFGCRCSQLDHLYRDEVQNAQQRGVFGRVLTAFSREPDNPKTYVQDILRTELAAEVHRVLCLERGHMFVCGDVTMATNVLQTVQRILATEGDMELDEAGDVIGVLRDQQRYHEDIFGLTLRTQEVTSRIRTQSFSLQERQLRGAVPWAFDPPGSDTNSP
In simple prose, pIC50 is minus the logarithm base ten of a concentration in moles per litre.

[[record]]
molecule = "CCOC(=O)N1CCC2(CC1)N=C(N)c1c(F)cccc1N2"
reported_measurement = 4.00


Looking up `N=C(N)NN` , I see its pIC50 listed as 4.00

Looking up NC1=NC(c2ccco2)Nc2c(F)ccc(F)c21 (stereo not drawn) , I see its pIC50 listed as 6.74

----------
Target: Nitric oxide synthase 1 (Homo sapiens, UniProt P29475)
Sequence (P29475 whole entry): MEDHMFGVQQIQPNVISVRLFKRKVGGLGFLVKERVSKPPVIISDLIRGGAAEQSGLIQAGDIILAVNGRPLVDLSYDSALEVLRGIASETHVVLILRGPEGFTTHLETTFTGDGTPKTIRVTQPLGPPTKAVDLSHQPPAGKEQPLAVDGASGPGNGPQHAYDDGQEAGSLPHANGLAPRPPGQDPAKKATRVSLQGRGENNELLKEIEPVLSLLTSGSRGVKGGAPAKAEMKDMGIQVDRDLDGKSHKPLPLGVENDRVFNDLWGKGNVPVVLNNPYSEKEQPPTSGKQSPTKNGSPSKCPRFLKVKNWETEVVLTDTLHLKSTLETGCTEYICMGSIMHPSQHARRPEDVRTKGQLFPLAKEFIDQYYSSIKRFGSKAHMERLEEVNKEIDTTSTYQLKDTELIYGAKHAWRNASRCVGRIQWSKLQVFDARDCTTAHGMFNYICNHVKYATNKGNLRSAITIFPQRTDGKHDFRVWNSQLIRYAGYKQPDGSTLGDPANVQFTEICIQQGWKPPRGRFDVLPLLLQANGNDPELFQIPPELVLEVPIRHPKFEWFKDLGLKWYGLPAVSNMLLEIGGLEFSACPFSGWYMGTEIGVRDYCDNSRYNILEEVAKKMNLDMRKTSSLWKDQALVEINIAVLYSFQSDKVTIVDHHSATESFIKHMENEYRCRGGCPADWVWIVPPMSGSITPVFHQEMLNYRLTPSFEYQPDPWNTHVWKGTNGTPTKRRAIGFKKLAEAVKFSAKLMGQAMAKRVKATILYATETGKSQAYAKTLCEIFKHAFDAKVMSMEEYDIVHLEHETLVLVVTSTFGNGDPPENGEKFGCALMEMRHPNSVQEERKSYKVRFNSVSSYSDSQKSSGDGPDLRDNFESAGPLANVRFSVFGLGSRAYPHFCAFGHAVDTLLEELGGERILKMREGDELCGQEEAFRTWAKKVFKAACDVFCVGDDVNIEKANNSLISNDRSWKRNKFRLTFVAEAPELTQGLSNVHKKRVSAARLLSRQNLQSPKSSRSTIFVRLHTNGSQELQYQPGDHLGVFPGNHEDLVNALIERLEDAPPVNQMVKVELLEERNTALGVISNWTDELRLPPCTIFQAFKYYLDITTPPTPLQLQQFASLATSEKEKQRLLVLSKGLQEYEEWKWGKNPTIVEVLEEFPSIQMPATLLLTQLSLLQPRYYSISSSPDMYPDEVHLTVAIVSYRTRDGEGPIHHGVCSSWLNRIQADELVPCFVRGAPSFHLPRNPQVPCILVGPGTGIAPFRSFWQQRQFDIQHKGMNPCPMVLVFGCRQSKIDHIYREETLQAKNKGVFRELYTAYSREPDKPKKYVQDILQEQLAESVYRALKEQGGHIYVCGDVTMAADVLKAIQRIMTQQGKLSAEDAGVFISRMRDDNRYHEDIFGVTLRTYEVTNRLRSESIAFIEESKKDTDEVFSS
quantity_name: pIC50
In simple prose, pIC50 is minus the logarithm base ten of a concentration in moles per litre.

Solved cases (5 shown):
[[record]]
compound = "CC(=N)NCCCC[C@H](N)C(=O)O"
quantity_name = "pIC50"
reported_measurement = 5.82

[[record]]
compound = "COC(=O)[C@@H](N)CCCNC(=N)N[N+](=O)[O-]"
quantity_name = "pIC50"
reported_measurement = 6.82

[[record]]
compound = "N=C(N)NN"
quantity_name = "pIC50"
reported_measurement = 5.23

[[record]]
compound = "NC1=NC2(CCN(C(=O)c3ccsc3)CC2)Nc2cccc(F)c21"
quantity_name = "pIC50"
reported_measurement = 4.15

[[record]]
compound = "NC1=NC(c2ccco2)Nc2c(F)ccc(F)c21 (configuration not stated)"
quantity_name = "pIC50"
reported_measurement = 7.22


Observed pIC50 on Nitric oxide synthase 1 (Homo sapiens, UniProt P29475), entry `N#Cc1ccc(C(=O)N2CCC3(CC2)N=C(N)c2c(F)cccc2N3)cc1` , equals 4.92

Observed pIC50 on Nitric oxide synthase 1 (Homo sapiens, UniProt P29475), entry `CCOC(=O)N1CCC2(CC1)N=C(N)c1sccc1N2` , equals 4.30
